Experiment: Granularity experiment
Type: physicochemical
Details: granularity

COMPOUND: C[C@@H]1Cc2c([nH]c3ccccc23)[C@@H](c2c(F)cc(/C=C/C(=O)O)cc2F)N1CC1(F)CC1 [crystal form C]
D50: 15.02 μm

COMPOUND: C[C@@H]1Cc2c([nH]c3ccccc23)[C@@H](c2c(F)cc(/C=C/C(=O)O)cc2F)N1CC1(F)CC1 [crystal form A]
D50: 16.37 μm

COMPOUND: C[C@@H]1Cc2c([nH]c3ccccc23)[C@@H](c2c(F)cc(/C=C/C(=O)O)cc2F)N1CC1(F)CC1 [amorphous form]
D50: 3.02 μm

COMPOUND: C[C@@H]1Cc2c([nH]c3ccccc23)[C@@H](c2c(F)cc(/C=C/C(=O)O)cc2F)N1CC1(F)CC1 [crystal form B]
D50: 15.48 μm

---

This listing pairs compounds with measured Purity %.
Assay: Stability experiment (75% RH, 92.5% RH, 40° C., 60° C. and light for 10 days; XRPD pattern and purity)
Assay type: physicochemical
Conditions: Light, 10 days
Method: X-ray powder diffraction instrument and test conditions involved in the present disclosure: the model of the X-ray diffraction instrument was Rigaku D/max-2200 Cu target; the operation method included a scanning speed of 10°/min and scanning step width of 0.01°. […]
OBSERVED PROPERTY: Purity % (%)

COMPOUND: C[C@@H]1Cc2c([nH]c3ccccc23)[C@@H](c2c(F)cc(/C=C/C(=O)O)cc2F)N1CC1(F)CC1 [crystal form C]
UNIT LABEL: %
OBSERVED: 99.71
--
COMPOUND: C[C@@H]1Cc2c([nH]c3ccccc23)[C@@H](c2c(F)cc(/C=C/C(=O)O)cc2F)N1CC1(F)CC1 [crystal form A]
UNIT LABEL: %
OBSERVED: 99.27
--
COMPOUND: C[C@@H]1Cc2c([nH]c3ccccc23)[C@@H](c2c(F)cc(/C=C/C(=O)O)cc2F)N1CC1(F)CC1 [crystal form B]
UNIT LABEL: %
OBSERVED: 99.68
--
COMPOUND: C[C@@H]1Cc2c([nH]c3ccccc23)[C@@H](c2c(F)cc(/C=C/C(=O)O)cc2F)N1CC1(F)CC1 [amorphous form]
UNIT LABEL: %
OBSERVED: 95.55

---

This listing pairs compounds with measured Purity %.
Test: Stability experiment (75% RH, 92.5% RH, 40° C., 60° C. and light for 10 days; XRPD pattern and purity)
Type: physicochemical
Conditions: 92.5% RH, 10 days

COMPOUND: C[C@@H]1Cc2c([nH]c3ccccc23)[C@@H](c2c(F)cc(/C=C/C(=O)O)cc2F)N1CC1(F)CC1 [crystal form B]
Purity % [%]: 99.81

COMPOUND: C[C@@H]1Cc2c([nH]c3ccccc23)[C@@H](c2c(F)cc(/C=C/C(=O)O)cc2F)N1CC1(F)CC1 [crystal form C]
Purity % [%]: 99.78

COMPOUND: C[C@@H]1Cc2c([nH]c3ccccc23)[C@@H](c2c(F)cc(/C=C/C(=O)O)cc2F)N1CC1(F)CC1 [crystal form A]
Purity % [%]: 99.34

COMPOUND: C[C@@H]1Cc2c([nH]c3ccccc23)[C@@H](c2c(F)cc(/C=C/C(=O)O)cc2F)N1CC1(F)CC1 [amorphous form]
Purity % [%]: 96.57

Just for reference, patent US12522599B2 is where these values come from.
